target: AMP-activated protein kinase, AMPK (Homo sapiens) (UniProt P54646+O43741+P54619+Q9UGJ0+Q9Y478+Q13131+Q9UGI9); assay: AMP-dependent Kinase enzyme assay. An in vitro enzyme assay that detects ADP turnover that is directly proportional to AMPK activity. This uses naive AMPK that is activated during the assay with MK-8722; assay type: functional; parameters: scale not given: direction of the effect not stated beside the values; conditions: 30 µM
measured-quantity: Percent Effect (%)

- compound: "c1csc(CN2CCO[C@H]3[C@H](OCCN4CCCC4)CC[C@@H]32)n1"
  measured-quantity: "Percent Effect"
  assay-result: 0.971
- compound: "COc1cccc(CN(C)Cc2ccc(C#N)cc2)c1OC"
  measured-quantity: "Percent Effect"
  assay-result: 2.32
- compound: "Cc1ccc(C2COCCN2C(=O)c2ccc(N(C)C)cc2)o1 (stereo unspecified)"
  measured-quantity: "Percent Effect"
  assay-result: -8.36
- compound: "Cn1cnnc1S(=O)(=O)C1CCN(S(=O)(=O)c2ccc(F)c(Cl)c2)CC1"
  measured-quantity: "Percent Effect"
  assay-result: 9.53
- compound: "O=C1CC(c2ccncc2)C2(CCN(C(=O)c3ccc[nH]3)CC2)N1 (stereo unspecified)"
  measured-quantity: "Percent Effect"
  assay-result: -1.68
- compound: "Cc1cc(C2CCCN(C(=O)c3ccc(C)[nH]c3=O)C2)n[nH]1 (stereo unspecified)"
  measured-quantity: "Percent Effect"
  assay-result: -0.306
- compound: "COc1ccc2c(c1)CCCN2Cc1nc2c(cnn2C)c(=O)[nH]1"
  measured-quantity: "Percent Effect"
  assay-result: -9.32
- compound: "CCN1CC(C(=O)NCc2ccnc(-n3ccnc3C)c2)CC1=O (stereo unspecified)"
  measured-quantity: "Percent Effect"
  assay-result: -12.9
- compound: "Cc1ccc(Nc2nccc(C3CCCN(CC(=O)N(C)C)C3)n2)nc1 (stereo unspecified)"
  measured-quantity: "Percent Effect"
  assay-result: -1.77
- compound: "CN(Cc1cccs1)C(=O)CN1CCCC1Cn1cncn1 (stereo unspecified)"
  measured-quantity: "Percent Effect"
  assay-result: -63.7
- compound: "CCOC1CCN(C(=O)c2cnn(-c3ccccc3Cl)c2)CC1"
  measured-quantity: "Percent Effect"
  assay-result: -9.38
